# assay_details: Microsomal stability
# Format: in vitro ADME
# run_parameters: 1 hr

- compound: "NS(=O)(=O)c1nn2cc(-c3ccc(Oc4ccc(Cl)cc4)cc3)nc2s1"
  Microsomal Stability (1 hr) (%): 85
- compound: "NS(=O)(=O)c1nn2cc(-c3ccccc3)nc2s1"
  Microsomal Stability (1 hr) (%): 90
- compound: "NS(=O)(=O)c1nn2cc(-c3ccc(-c4cccc(C(F)(F)F)c4)cc3)nc2s1"
  Microsomal Stability (1 hr) (%): 60
- compound: "COc1cccc(-c2ccc(-c3cn4nc(S(N)(=O)=O)sc4n3)cc2)c1"
  Microsomal Stability (1 hr) (%): 74
- compound: "NS(=O)(=O)c1nn2cc(-c3ccc(N4CCOCC4)cc3)nc2s1"
  Microsomal Stability (1 hr) (%): 100
- compound: "NS(=O)(=O)c1nn2c(Br)c(-c3ccccc3)nc2s1 [5-Br-6-Ph-ITS, reference compound]"
  Microsomal Stability (1 hr) (%): 0

====

Entries annotated with measured log P
# assay_details: log P
# Type: physicochemical
measure_name: log P

- compound: "COCC(=O)NS(=O)(=O)c1nn2cc(-c3ccc(-c4cccc(C(F)(F)F)c4)cc3)nc2s1"
  value_reported: 4.85
- compound: "CCCC(=O)NS(=O)(=O)c1nn2cc(-c3ccccc3)nc2s1"
  value_reported: 3.67
- compound: "CC(=O)NS(=O)(=O)c1nn2cc(-c3ccccc3)nc2s1"
  value_reported: 2.6
- compound: "CC(C)(C)OC(=O)NS(=O)(=O)c1nn2cc(-c3ccc(-c4cccc(C(F)(F)F)c4)cc3)nc2s1"
  value_reported: 5.76
- compound: "CC(=O)NS(=O)(=O)c1nn2cc(-c3ccc(N4CCOCC4)cc3)nc2s1"
  value_reported: 2.48
- compound: "CCCC(=O)NS(=O)(=O)c1nn2cc(-c3ccc(-c4cccc(C(F)(F)F)c4)cc3)nc2s1"
  value_reported: 6.26
- compound: "CSCCC(NC(=O)OC(C)(C)C)C(=O)NS(=O)(=O)c1nn2cc(-c3ccccc3)nc2s1 (stereo not shown)"
  value_reported: 3.37
- compound: "COCCOCC(=O)NS(=O)(=O)c1nn2cc(-c3ccc(-c4cccc(C(F)(F)F)c4)cc3)nc2s1"
  value_reported: 4.96
- compound: "CC(=O)NS(=O)(=O)c1nn2cc(-c3ccc(-c4cccc(C(F)(F)F)c4)cc3)nc2s1"
  value_reported: 5.19
- compound: "COCC(=O)NS(=O)(=O)c1nn2cc(-c3ccc(N4CCOCC4)cc3)nc2s1"
  value_reported: 2.14

====

Entries annotated with measured Stability in 10 wt/vol HPCD
# assay_details: Stability of solutions/formulations
# Type: physicochemical
# run_parameters: PBS/HPCD (25:75) solution

- molecule: "CCCC(=O)NS(=O)(=O)c1nn2cc(-c3ccc(-c4cccc(C(F)(F)F)c4)cc3)nc2s1 [Compound 40]"
  Stability in 10 wt/vol HPCD: ">1 weeks"
- molecule: "COCC(=O)NS(=O)(=O)c1nn2cc(-c3ccc(-c4cccc(C(F)(F)F)c4)cc3)nc2s1 [Compound 39]"
  Stability in 10 wt/vol HPCD: ">1 weeks"
- molecule: "COCCOCCOCC(=O)NS(=O)(=O)c1nn2cc(-c3ccc(-c4cccc(C(F)(F)F)c4)cc3)nc2s1 [Compound 42]"
  Stability in 10 wt/vol HPCD: ">4 weeks"
- molecule: "CC(=O)NCC(=O)NS(=O)(=O)c1nn2cc(-c3ccccc3)nc2s1 [Compound 20]"
  Stability in 10 wt/vol HPCD: ">4 weeks"
- molecule: "CC(=O)NS(=O)(=O)c1nn2cc(-c3ccc(N4CCOCC4)cc3)nc2s1 [Compound 31]"
  Stability in 10 wt/vol HPCD: ">4 weeks"
- molecule: "CCCC(=O)NS(=O)(=O)c1nn2cc(-c3ccccc3)nc2s1 [Compound 16]"
  Stability in 10 wt/vol HPCD: ">4 weeks"
- molecule: "CC(C)(C)OC(=O)NCC(=O)NS(=O)(=O)c1nn2cc(-c3ccccc3)nc2s1 [Compound 18]"
  Stability in 10 wt/vol HPCD: ">4 weeks"
- molecule: "O=C(O)CCC(=O)NS(=O)(=O)c1nn2cc(-c3ccccc3)nc2s1 [Compound 22]"
  Stability in 10 wt/vol HPCD: ">4 weeks"
- molecule: "COCCOCC(=O)NS(=O)(=O)c1nn2cc(-c3ccc(-c4cccc(C(F)(F)F)c4)cc3)nc2s1 [Compound 41]"
  Stability in 10 wt/vol HPCD: ">1 weeks"
- molecule: "CC(C)(C)OC(=O)NS(=O)(=O)c1nn2cc(-c3ccc(-c4cccc(C(F)(F)F)c4)cc3)nc2s1 [Compound 43]"
  Stability in 10 wt/vol HPCD: ">1 weeks"
- molecule: "CSCCC(NC(=O)OC(C)(C)C)C(=O)NS(=O)(=O)c1nn2cc(-c3ccccc3)nc2s1 (stereo not shown) [Compound 23]"
  Stability in 10 wt/vol HPCD: ">1 weeks"
- molecule: "CC(=O)NS(=O)(=O)c1nn2cc(-c3ccc(-c4cccc(C(F)(F)F)c4)cc3)nc2s1 [Compound 37]"
  Stability in 10 wt/vol HPCD: ">1 weeks"
- molecule: "CC(=O)NS(=O)(=O)c1nn2cc(-c3ccccc3)nc2s1 [Compound 15]"
  Stability in 10 wt/vol HPCD: ">4 weeks"
